Consider the following compounds; for each one, report its NHEJ repair efficiency (log10).
- System: CLZ3 (HCA2 human fibroblast dual HR-NHEJ reporter)
- assay summary: NHEJ repair efficiency (GFP+ cells) relative to control (log10 fold); higher = more non-homologous end joining
- stated conditions: 5 µM; doxycycline 0.5 ug/mL
Answers are plain numbers.

Known NHEJ repair efficiency (log10) results, listed for orientation:
**Q:** Which NHEJ repair efficiency (log10) value is on record for COC[C@@]12CC[C@H](OC)[C@]34C(C([C@H](OC)[C@H]13)[C@]1(OC(C)=O)[C@H]3[C@@H](OC(=O)c5ccccc5)[C@](O)(C[C@H]34)[C@@H](OC)[C@@H]1O)N(C)C2 [Hypaconitine] ?
**A:** 0.0511

**Q:** Proceed to C/C=C/C#CC#C/C=C/c1ccco1 [Atractylodin]
**A:** 0.014

**Q:** COc1cc2c(cc1O)C[C@@H]1NCCc3cc(OC)c(O)c-2c31 [Norisoboldine] ?
**A:** -0.132

# batch: return NHEJ repair efficiency (log10) for each of the 4 compounds below
1. O=C1CCC[C@@H]2[C@H]3CCCN4CCC[C@@H](CN12)[C@@H]34 [Matrine]
2. COC[C@]12CN(C)[C@@H]3[C@@H]4[C@H](OC)[C@H]1[C@@]3([C@@H](OC)C[C@H]2O)[C@@H]1C[C@@]2(O)[C@H](OC(=O)c3ccccc3)[C@@H]1[C@]4(OC(C)=O)[C@@H](O)[C@@H]2OC [Mesaconitine]
3. CCC1=C[C@H]2CN3CCc4c([nH]c5ccccc45)[C@](C(=O)OC)(C2)[C@H]13 [Catharanthine]
4. COc1cc2occc2c2oc(=O)ccc12 [Isobergapten]

**A:**
1. -0.00125
2. -0.0215
3. 0.00477
4. -0.0955

---

- Tested on: CLZ3 (HCA2 human fibroblast dual HR-NHEJ reporter)
- assay summary: HR repair efficiency (tdTomato+ cells) relative to control (log10 fold); higher = more homologous recombination
- stated conditions: 5 µM; doxycycline 0.5 ug/mL
Label t when HR repair efficiency (log10) >= -0.01; otherwise f.

**Q:** Hello, I need to know if CCCC[N+]1(C)[C@@H]2C[C@@H](OC(=O)[C@H](CO)c3ccccc3)C[C@H]1[C@@H]1O[C@@H]12 (stereo partly drawn) [Scopolamine Butylbromide] has measured HR repair efficiency (log10) not below -0.01. Thanks!
**A:** t

**Q:** Let us now turn to "CCN1C[C@]2(COC)[C@H](O)C[C@H](OC)[C@]34C1[C@H]([C@H](OC)[C@H]23)[C@@]1(OC(C)=O)C[C@H](OC)[C@@]2(O)C[C@@H]4[C@@H]1[C@H]2OC(=O)c1ccccc1"
**A:** t

**Q:** Now the compound "COC[C@]12CN(C)C3[C@@H]4[C@H](OC)[C@H]1[C@@]3([C@@H](OC)C[C@H]2O)[C@@H]1C[C@@]2(O)[C@H](OC(=O)c3ccccc3)[C@@H]1[C@]4(O)[C@@H](O)[C@@H]2OC"
**A:** f

Consider the additional compound presented here.
**Q:** Is it the case that "O=C/C=C/c1ccccc1" has HR repair efficiency (log10) reaching or exceeding -0.01?
**A:** f

---

- Test system: CLZ3 (HCA2 human fibroblast dual HR-NHEJ reporter)
- assay summary: NHEJ repair efficiency (GFP+ cells) relative to control (log10 fold); higher = more non-homologous end joining
- stated conditions: 5 µM; doxycycline 0.5 ug/mL
Can you tell me NHEJ repair efficiency (log10) for the items I'm about to list?
Answers are plain numbers.

**Q:** What does the data say about its NHEJ repair efficiency (log10)? Entry: CC(=O)OC[C@]12[C@H](OC(C)=O)[C@H](OC(C)=O)[C@@H]3[C@@H](OC(C)=O)[C@@]14O[C@@]3(C)COC(=O)c1cccnc1CCC(C)C(=O)O[C@@H]([C@H](OC(=O)c1ccccc1)[C@@H]2OC(C)=O)[C@]4(C)O (stereo not given in full) [Wilforine]
**A:** -0.122

**Q:** Can you check C[C@H]1C(=O)O[C@@H]2CCN3CC=C(COC(=O)[C@](C)(O)[C@]1(C)O)[C@H]23 [Monocrotaline] next?
**A:** -0.0165

**Q:** What do we get for c1cc2c(cc1[C@H]1OC[C@H]3[C@@H]1CO[C@H]3c1ccc3c(c1)OCO3)OCO2 [Asarinin] ?
**A:** -0.271

State recorded NHEJ repair efficiency (log10) for all listed molecules.
1. C[C@@H]1CCC=C2C(=O)C[C@H]3OOC(C)(C)[C@H]3[C@]21C [Nardosinone]
2. CCN1C[C@]2(COC)CC[C@H](O)C34C1C([C@H](OC)[C@@H]32)[C@]1(O)[C@@H]2[C@H]4CC([C@@H](OC)[C@@H]1O)[C@@H]2O [Fuziline]

**A:**
1: -0.0297; 2: 0.0177

---

Kindly supply the reported HR repair efficiency (log10) values for the records listed here.
- System: CLZ3 (HCA2 human fibroblast dual HR-NHEJ reporter)
- assay summary: HR repair efficiency (tdTomato+ cells) relative to control (log10 fold); higher = more homologous recombination
- stated conditions: 5 µM; doxycycline 0.5 ug/mL
Numbers only.

Record excerpt, results attached:
**Q:** Param item = CC1=C2C[C@H]3[C@@H](CC(=O)[C@H]4C[C@@H](O)CC[C@@]43C)[C@@H]2CC[C@]12O[C@@H]1C[C@H](C)CN[C@H]1[C@H]2C [Peimisine] ; retrieve measured HR repair efficiency (log10).
**A:** -0.00991

**Q:** Repeat for the following compound: CCN1C[C@]2(COC)CC[C@H](OC)[C@]34C1[C@H]([C@H](OC)[C@H]23)[C@@]1(OC(C)=O)C[C@H](OC)[C@@]2(O)C[C@@H]4[C@@H]1[C@H]2OC(=O)c1ccc(OC)cc1 [Crassicauline A]
**A:** 0.0792

**Q:** Check CC(C)c1ccc2c(c1O)CC[C@H]1C3=C(CC[C@]21C)C(=O)OC3 [Triptophenolide] too.
**A:** -0.108

Now examine the next entry.
**Q:** Requested field: HR repair efficiency (log10). Item: CCN1C[C@]2(COC)CC[C@H](O)[C@]34C1[C@@](O)([C@@H](OC)[C@H]23)[C@@]1(O)C[C@H](OC)[C@H]2C[C@@H]4[C@@H]1[C@H]2OC [Delsoline]
**A:** 0.0487

Data origin: the supplement of paper PMC7380943
